Reference source: ChEMBL document CHEMBL5154944

assay: Half life in fasted Sprague-Dawley rat at 0.4 mg/kg, iv by LC-MS/MS analysis; type: ADME, organism-based; conditions: in vivo
Non-standard residues stand in square brackets, D forms with d. Residues, ends and D or L forms follow the SMILES beside them. *: point of attachment. Benzoyl(4-OPh(4-CONH2)) = NC(=O)c1ccc(Oc2ccc(C(=O)*)cc2)cc1; Benzenesulfonyl(4-OPh) = O=S(=O)(c1ccc(Oc2ccccc2)cc1)*; NMeI = CC[C@H](C)[C@H](NC)C(=O)O; NMeE = CN[C@@H](CCC(=O)O)C(=O)O; β3hP = O=C(O)C[C@@H]1CCCN1; Dab = NCC[C@H](N)C(=O)O; Ava = NCCCCC(=O)O; GABA = NCCCC(=O)O
Exercise: state measured half-life for each of the compounds provided.
Lab note: write values as number then unit, every time.

Consider the reported half-life for these compounds:
CC(C)C[C@H](NC(=O)[C@H](CCN)NC(=O)[C@H](CC(=O)O)NC(=O)[C@H](CC(N)=O)NC(=O)CCCCNC(=O)c1ccc(Oc2ccc(C(N)=O)cc2)cc1)C(=O)N(C)[C@@H](CCC(=O)O)C(=O)N1CCC[C@H]1CC(N)=O ({Benzoyl(4-OPh(4-CONH2))-Ava}-ND[Dab]L[NMeE][β3hP]-NH2) :: 16 min
CC(C)C[C@H](NC(=O)[C@H](CCN)NC(=O)[C@H](CC(=O)O)NC(=O)[C@H](CC(N)=O)NC(=O)CCCNS(=O)(=O)c1ccc(Oc2ccccc2)cc1)C(=O)N(C)[C@@H](CCC(=O)O)C(=O)N1CCC[C@H]1CC(N)=O ({Benzenesulfonyl(4-OPh)-GABA}-ND[Dab]L[NMeE][β3hP]-NH2) :: 9 min

Specify half-life for CC[C@H](C)[C@@H](C(=O)N1CCC[C@H]1CC(N)=O)N(C)C(=O)[C@H](CC(C)C)NC(=O)[C@H](C)NC(=O)[C@H](CC(=O)O)NC(=O)[C@H](CC(N)=O)NC(=O)CCCNS(=O)(=O)c1ccc(Oc2ccccc2)cc1 ({Benzenesulfonyl(4-OPh)-GABA}-NDAL[NMeI][β3hP]-NH2) and stop. 8 min

###

biological target: Collagenase 3 (Homo sapiens, UniProt P45452)
Non-standard residues stand in square brackets, D forms with d. Residues, ends and D or L forms follow the SMILES beside them. *: point of attachment. Benzenesulfonyl(4-OPh) = O=S(=O)(c1ccc(Oc2ccccc2)cc1)*; NMeI = CC[C@H](C)[C@H](NC)C(=O)O; GABA = NCCCC(=O)O
parameter measured: pIC50
Numbers only, as −log10 of the molar value.

CSCC[C@H](NC(=O)[C@H](CC(C)C)NC(=O)[C@H](C)NC(=O)[C@H](CC(=O)O)NC(=O)[C@H](CC(N)=O)NC(=O)CCCNS(=O)(=O)c1ccc(Oc2ccccc2)cc1)C(=O)N1CCC[C@H]1C(N)=O ({Benzenesulfonyl(4-OPh)-GABA}-NDALMP-NH2) :: 7.26

Lab note: next compound to report on.
Look up and report measured pIC50 for this entry: CC[C@H](C)[C@@H](C(=O)N1CCC[C@H]1C(N)=O)N(C)C(=O)[C@H](CC(C)C)NC(=O)[C@H](C)NC(=O)[C@H](CC(=O)O)NC(=O)[C@H](CC(N)=O)NC(=O)CCCNS(=O)(=O)c1ccc(Oc2ccccc2)cc1 ({Benzenesulfonyl(4-OPh)-GABA}-NDAL[NMeI]P-NH2) 7.80
